Where do these numbers come from? They come from paper PMC5540273.

test system: CSNK1E; conditions: concentration: 1 μM, replicates: in singlicate; n = 1;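 also: KINOMEscan kinase panel screen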
Reported %Inh is given for each of the following molecules.
Quantity name: %Inh

cpd_smiles=CCc1nc(-c2cccc(C)c2)c(-c2ccnc(NC(=O)c3ccccc3)c2)s1 value_observed=82%
cpd_smiles=Cc1ccc(C)c(NC(=O)NCCNc2ccnc(Nc3ccc(F)cc3)n2)c1 value_observed=33%
cpd_smiles=C[C@H]1CC[C@@H](C(=O)Nc2ccccc2)CN1c1cc(-c2ccc3c(N)n[nH]c3c2)nc(N)n1 value_observed=7%
cpd_smiles=FC(F)(F)c1cc(Nc2nccc(-c3c(-c4ccc(Cl)cc4)nn4ncccc34)n2)ccc1Cl value_observed=79%
cpd_smiles=COC(=O)c1c(-c2ccccc2)c2cc(Cl)ccc2c(=O)n1Cc1ccc(S(C)(=O)=O)cc1 value_observed=3%
cpd_smiles=CSc1ccc(NC2=C(c3ccccc3Cl)C(=O)NC2=O)cc1 value_observed=19%
cpd_smiles=Clc1ccc(-c2cc(-c3c[nH]nc3-c3ccccn3)ccn2)cc1 value_observed=33%
cpd_smiles=Cn1ccc2ncnc(Nc3ccc(Oc4cccc(Cl)c4)c(Cl)c3)c21 value_observed=0%
cpd_smiles=CNc1nccc(-c2c(-c3ccc(F)cc3)ncn2CCCN2CCOCC2)n1 value_observed=19%
cpd_smiles=N#Cc1ccc(Oc2ccc(Nc3ncnc4cc[nH]c34)cc2Cl)cc1 value_observed=7%
cpd_smiles=CN1c2ccc(-c3ccc(C(=O)NCCO)cc3)cc2-c2[nH]ncc2S1(=O)=O value_observed=3%
cpd_smiles=CS(=O)(=O)CCNCc1ccc(-c2ccc3ncnc(Nc4ccc(OCc5ccccc5)c(Cl)c4)c3c2)o1.Cl value_observed=10%
cpd_smiles=CCn1c(-c2ccncc2)nc2cnccc21 value_observed=0%
cpd_smiles=OCCOCCn1ccc2ncnc(Nc3ccc(Oc4cccc(Cl)c4)c(Cl)c3)c21 value_observed=0%
cpd_smiles=CC(=O)Nc1n[nH]c2ncc(-c3ccccc3)cc12 value_observed=34%
cpd_smiles=Cl.Cn1ccc(-c2cccc(Nc3ccnc4cc(-c5nccs5)ccc34)c2)n1 value_observed=21%
cpd_smiles=Fc1cccc(COc2ccc(Nc3ncnc4sc(-c5ccc[nH]5)cc34)cc2Cl)c1 value_observed=8%
cpd_smiles=Cl.Cl.c1ccc(-c2cc3ccncc3cc2OC2CCNCC2)cc1 value_observed=41%

====

tested on: AAK1; details: concentration: 1 μM, replicates: in singlicate; n = 1
Quantity name: %Inh (%)

cpd_smiles=C[C@H]1CC[C@@H](C(=O)Nc2ccccc2)CN1c1cc(-c2ccc3c(N)n[nH]c3c2)nc(N)n1 unit=% value_observed=23
cpd_smiles=Cl.Cl.c1ccc(-c2cc3ccncc3cc2OC2CCNCC2)cc1 unit=% value_observed=27
cpd_smiles=CN1c2ccc(-c3ccc(C(=O)NCCO)cc3)cc2-c2[nH]ncc2S1(=O)=O unit=% value_observed=54
cpd_smiles=Clc1ccc(-c2cc(-c3c[nH]nc3-c3ccccn3)ccn2)cc1 unit=% value_observed=2

====

tested on: TNK2; conditions: concentration: 1 μM, replicates: in singlicate; n = 1
The compounds listed here are annotated with their %Inh.
Quantity name: %Inh (%)

compound="CCCc1ccc(S(=O)(=O)NC2CCN(c3ccnc(Nc4ccc(OC)cc4)n3)C2)cc1 (stereo not shown) [GSK1379737]" quantity_name=%Inh unit=% value_observed=11
compound="COc1ccc(-c2oc3ncnc(N)c3c2-c2ccc(OC)cc2)cc1 [SB-589132]" quantity_name=%Inh unit=% value_observed=44
compound=O=C(NCCCN1CCCC1=O)c1cnc(NCc2cc(Cl)ccc2Cl)nc1NC1CCNCC1 quantity_name=%Inh unit=% value_observed=0
compound="CS(=O)(=O)CCNCc1nc(-c2ccc3ncnc(Nc4ccc(OCc5cccc(F)c5)c(Cl)c4)c3c2)cs1.Cl [GW583340]" quantity_name=%Inh unit=% value_observed=6
compound="Nc1nc(-c2cccnc2)c(-c2ccnc3ccccc23)s1 [GW684083]" quantity_name=%Inh unit=% value_observed=18
compound="Fc1cccc(COc2ccc(Nc3ncnc4nn5ccccc5c34)cc2Cl)c1 [GW689066]" quantity_name=%Inh unit=% value_observed=10
compound="Cl.c1ccc(Cn2ncc3cc(Nc4ncnc5ccccc45)ccc32)cc1 [GW273749]" quantity_name=%Inh unit=% value_observed=12
compound="COc1cc2c(Nc3cccc(NC(=O)c4ccccc4)c3)ncnc2cc1OCCCN1CCOCC1 [GSK223810]" quantity_name=%Inh unit=% value_observed=13
compound="O=C(c1ccc(-c2cc(-c3c[nH]nc3-c3ccccn3)ccn2)cc1)N1CCCC1 [GW792479]" quantity_name=%Inh unit=% value_observed=0
compound="CNc1nccc(-c2c(-c3ccc(F)cc3)ncn2C2CCN(C)CC2)n1 [SB-222903]" quantity_name=%Inh unit=% value_observed=0
compound="CSc1ccc(NC2=C(c3ccccc3Cl)C(=O)NC2=O)cc1 [SB-342411]" quantity_name=%Inh unit=% value_observed=0
compound=Fc1cccc(COc2ccc(Nc3ncnc4cc[nH]c34)cc2Cl)c1 quantity_name=%Inh unit=% value_observed=27
compound="Fc1ccc(Nc2nccc(-c3c(-c4ccc(Cl)cc4)nn4ncccc34)n2)cc1F [GW829058]" quantity_name=%Inh unit=% value_observed=0
compound="FC(F)(F)c1ccc(-c2nn3ncccc3c2-c2ccnc(Nc3cccc(C(F)(F)F)c3)n2)cc1 [GW828205]" quantity_name=%Inh unit=% value_observed=0
compound="Nc1nc(-c2ccccn2)c(-c2ccnc3ccccc23)s1 [GW548057]" quantity_name=%Inh unit=% value_observed=5
compound="Oc1ccc2ncnc(Nc3ccc(OCc4ccccc4)cc3)c2c1 [GI262866]" quantity_name=%Inh unit=% value_observed=4
compound="CN1CCC(n2cnc(-c3ccc(F)cc3)c2-c2ccnc(NC3CCNCC3)n2)CC1 [SB-229482]" quantity_name=%Inh unit=% value_observed=0
compound="FC(F)(F)c1cc(Nc2nccc(-c3c(-c4ccc(Cl)cc4)nn4ncccc34)n2)ccc1Cl [GW829351]" quantity_name=%Inh unit=% value_observed=0
compound="Nc1nccc2scc(-c3ccc4c(c3)CCN4C(=O)Cc3cc(F)ccc3F)c12 [GSK2587663]" quantity_name=%Inh unit=% value_observed=23
compound="Nc1nc(-c2ccc3c(N)n[nH]c3c2)cc(N2CCC[C@@H](C(=O)Nc3ccccc3)C2)n1.O=C(O)C(F)(F)F.O=C(O)C(F)(F)F [GSK2288359]" quantity_name=%Inh unit=% value_observed=1
compound="Cc1ccc(NC(=O)c2cccc(C#N)c2)cc1-c1ccc(C(=O)Nc2ccncc2)cc1 [GSK1398463]" quantity_name=%Inh unit=% value_observed=21
compound=Fc1ccc(-c2ncn(CCCNCc3ccccc3)c2-c2ccncc2)cc1 quantity_name=%Inh unit=% value_observed=13
compound="Clc1ccc(-c2cc(-c3c[nH]nc3-c3ccccn3)ccn2)cc1 [GW681251]" quantity_name=%Inh unit=% value_observed=0
compound="COc1ccc(NC(=O)c2ccc(-c3cc(-c4nnc(C)o4)ccc3C)cc2)cc1 [GW595885]" quantity_name=%Inh unit=% value_observed=21
compound=N#Cc1ccc(Oc2ccc(Nc3ncnc4cc[nH]c34)cc2Cl)cc1 quantity_name=%Inh unit=% value_observed=2
compound="CS(=O)(=O)CCNCc1ccc(-c2ccc3ncnc(Nc4ccc(OCc5ccccc5)c(Cl)c4)c3c2)o1.Cl [GW574783]" quantity_name=%Inh unit=% value_observed=9
compound="Cn1cc(-c2ccc3c(c2)CCN3C(=O)Cc2cccc(C(F)(F)F)c2)c2c(N)ncnc21 [GSK2606414]" quantity_name=%Inh unit=% value_observed=0
compound="COc1ccc(Nc2nccc(N3CCC(NC(=O)Nc4ccc5c(c4)OCO5)C3)n2)cc1 (stereo not shown) [GSK1379745]" quantity_name=%Inh unit=% value_observed=14
